# assay name: Cytotoxicity against LPS-induced mouse BV2 cells assessed as cell viability after 24 hrs by MTT assay
# Format: cell-based, BV-2
# Set-up: concentration or dose not given beside the values
# measurement setup: read-out: Activity
Measured viability at 24 h accompanies every entry in the list below.
Answer in %, number only, no unit symbol.

Previously resolved entries follow.
{"columns": ["compound", "observed property", "endpoint result"],
 "data": [
  ["COC(=O)C(C)CC(=O)C[C@@H](C)[C@H]1C[C@H](O)[C@@]2(C)C3=C(C(=O)C[C@]12C)[C@@]1(C)CCC(=O)C(C)(C)[C@@H]1C[C@@H]3O (stereo partly drawn) [METHYL GANODERATE A]", "viability at 24 h", 91.3],
  ["C/C(=C/C(=O)CC(C)C(=O)O)[C@H]1C[C@H](O)[C@@]2(C)C3=C(C(=O)C[C@]12C)[C@@]1(C)CCC(=O)C(C)(C)[C@@H]1CC3 (stereo partly drawn)", "viability at 24 h", 89.3]
]}

Could you now look at the following compound, please?
Report measured viability at 24 h; entry is CC(=O)O[C@@H]1C(=O)C2=C(C(=O)C[C@H]3C(C)(C)C(=O)CC[C@]23C)[C@]2(C)C(=O)C[C@H]([C@H](C)CC(=O)CC(C)C(=O)O)[C@@]12C (stereo partly drawn) [GANODERIC ACID F] 90.6
